# system_name: Lysosomal Pro-X carboxypeptidase (Mus musculus)
# Sequence (Q7TMR0 whole entry): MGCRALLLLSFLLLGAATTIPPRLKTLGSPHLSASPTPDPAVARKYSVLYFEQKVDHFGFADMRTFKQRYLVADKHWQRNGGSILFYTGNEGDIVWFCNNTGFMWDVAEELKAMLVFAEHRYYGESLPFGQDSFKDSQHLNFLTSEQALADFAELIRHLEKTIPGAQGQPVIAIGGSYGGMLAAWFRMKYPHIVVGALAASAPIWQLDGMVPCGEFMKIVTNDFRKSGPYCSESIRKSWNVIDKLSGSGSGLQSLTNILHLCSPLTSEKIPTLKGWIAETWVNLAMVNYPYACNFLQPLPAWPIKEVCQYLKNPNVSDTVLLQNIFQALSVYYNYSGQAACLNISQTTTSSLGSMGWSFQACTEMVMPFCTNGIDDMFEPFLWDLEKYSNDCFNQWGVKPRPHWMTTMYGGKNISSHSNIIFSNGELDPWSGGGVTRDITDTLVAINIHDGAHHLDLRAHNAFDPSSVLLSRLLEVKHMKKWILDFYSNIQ
# protocol_summary: Inhibition of PrCP-mediated angiotensin3 cleavage in mouse plasma using exogenous angiotensin III as substrate for 8 mins by LC/MS analysis
readout_kind: IC50 (nM)
Give bare numbers, in nM.

Worked cases, IC50 given:
C[C@H](NC(=O)[C@@H](NC(=O)C(C)(C)N)[C@@H](C)c1ccc(OCC(F)(F)F)cc1)c1nc2cc(Cl)c(Cl)cc2[nH]1    92
C[C@H](NC(=O)[C@@H](N)Cc1cccc(C#N)c1)c1nc2cc(Cl)c(Cl)cc2[nH]1    5000
C[C@H](NC(=O)CCN1CCN(c2cccc(F)c2)CC1)c1nc2cc(Cl)c(Cl)cc2[nH]1    5000
C[C@H](NC(=O)[C@@H](NC(=O)C(C)(C)O)[C@@H](C)c1ccc(OCC(F)(F)F)cc1)c1nc2cc(Cl)c(Cl)cc2[nH]1    45
C[C@H](NC(=O)[C@@H](NC(=O)C(C)(C)N)[C@@H](C)c1ccc(-c2ccccc2)cc1)c1nc2cc(Cl)c(Cl)cc2[nH]1    22

Provide the reported IC50 of each entry below, same order.
1. C[C@H](NC(=O)CCN1CCN(c2ccc(F)cc2)CC1)c1nc2cc(Cl)c(Cl)cc2[nH]1
2. C[C@H](NC(=O)[C@@H](NC(=O)C(C)(C)O)[C@@H](C)c1ccc(-c2cn[nH]c2)cc1)c1nc2cc(Cl)c(Cl)cc2[nH]1
3. C[C@H](NC(=O)[C@H](Cc1cccc(C#N)c1)NC(=O)C(C)(C)N)c1nc2cc(Cl)c(Cl)cc2[nH]1
4. C[C@H](NC(=O)[C@H](Cc1ccc(-c2ccccc2)cc1)NCC(C)(C)N)c1nc2cc(Cl)c(Cl)cc2[nH]1

Given back:
1. 20000
2. 78
3. 1600
4. 585
